This collection of values is drawn from PubChem BioAssay (NCI).

tested on: K-562 leukemia; assay: NCI tumour cell line growth inhibition, 48 h
RESULT TYPE: TGI

# TGI lookup, item `O=[N+]([O-])c1nccn1COCCI`
> 100 µM

Reported TGI for COC(=O)CCC1(NS(=O)(=O)c2ccc(C)cc2)CCC(C(C)(C)C)CC1 (stereo unspecified) : what is it?
33.7 µM

Quick check: TGI of `Cn1c(=O)c2c(ncn2Cc2ccc(O)c([N+](=O)[O-])c2)n(C)c1=O` ?
> 100 µM

Entry `N#C/C(=C\c1c(Cl)cccc1Cl)c1ccccc1` : reported TGI = ?
> 100 µM

# TGI lookup, item CCC1([N+](=O)[O-])CC2C=CC1C2 (stereo unspecified)
> 100 µM

# input compound: `CC1(C)C(=NN=C(N)N)C(C)(C)C1=NN=C(N)N` ; wanted: its TGI
> 100 µM

Can you look up the measured TGI of OC1(c2ccccc2)CCCCCCCCC(O)(c2ccccc2)CCCCCCCC1 (stereo unspecified) for me?
> 100 µM

Tell me the measured TGI of O=C1OC(=O)C2=C1C(c1cccs1)C=C(c1cccnc1)N2c1ccncc1 (stereo unspecified) , please.
84.6 µM

Value lookup for TGI; key = Clc1ccc(C2ON=C(c3ccccc3)N2C23CC4CC(CC(C4)C2)C3)c(Cl)c1 (stereo unspecified)
> 10 µM

Report TGI for CCn1cc(C(=O)N/N=C/c2ccc(Br)cc2)c(=O)c2cc(F)c(N3CCNC(C)C3)c(F)c21 (stereo unspecified) please.
3.17 µM

// lookup TGI for COc1ccc(Cc2nc3cc([N+](=O)[O-])ccc3n2C[C@@H]2CCCN3CCCCC23)cc1 (stereo partly specified)
57.6 µM
